Please go through the items and note down their relative binding affinity (RBA).
- assay_target: UniProtKB P03372
- Sequence (P03372 whole entry): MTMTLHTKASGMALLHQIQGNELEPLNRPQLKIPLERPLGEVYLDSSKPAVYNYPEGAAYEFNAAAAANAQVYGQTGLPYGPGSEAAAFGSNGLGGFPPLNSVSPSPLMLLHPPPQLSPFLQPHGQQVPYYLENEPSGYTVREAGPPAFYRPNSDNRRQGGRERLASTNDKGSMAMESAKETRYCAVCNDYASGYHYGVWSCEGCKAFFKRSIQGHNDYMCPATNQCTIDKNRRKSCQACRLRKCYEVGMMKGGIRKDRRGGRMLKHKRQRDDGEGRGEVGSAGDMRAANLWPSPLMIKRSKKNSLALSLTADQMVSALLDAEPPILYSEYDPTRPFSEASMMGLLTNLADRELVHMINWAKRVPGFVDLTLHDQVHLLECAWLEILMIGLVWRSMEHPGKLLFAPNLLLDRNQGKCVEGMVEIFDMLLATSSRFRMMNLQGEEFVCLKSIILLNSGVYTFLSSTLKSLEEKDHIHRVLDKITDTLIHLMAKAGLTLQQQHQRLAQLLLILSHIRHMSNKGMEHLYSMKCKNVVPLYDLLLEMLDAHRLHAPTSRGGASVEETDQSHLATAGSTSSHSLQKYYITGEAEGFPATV
- procedure_details: Binding affinity to recombinant ERalpha by fluorescence polarization assay relative to 17-beta-estradiol
Lab note: write the figure by itself, no unit.

Looking up `COc1cc(O)c2c(C=O)c(-c3ccc(O)cc3O)oc2c1` , I found its relative binding affinity (RBA) recorded as 0.18

Looking up `COc1cc(O)ccc1-c1oc2cc(OC)c(CC=C(C)C)c(O)c2c1C=O` , I found its relative binding affinity (RBA) recorded as 0.46

Looking up `COc1cc(O)ccc1-c1oc2cc(OC)c(CCC(C)(C)O)c(O)c2c1C=O` , I found its relative binding affinity (RBA) recorded as 0.06

Looking up `COc1cc2oc(-c3ccc(O)cc3O)c(C=O)c2c(O)c1CC=C(C)C` , I found its relative binding affinity (RBA) recorded as 0.09

Looking up C=C(C)C(O)Cc1c(OC)cc2oc(-c3ccc(O)cc3O)c(C=O)c2c1O (stereo unspecified) , I found its relative binding affinity (RBA) recorded as 0.94

Looking up `COc1cc2oc(-c3ccc(O)cc3O)c(C=O)c2c(O)c1CCC(C)(C)O` , I found its relative binding affinity (RBA) recorded as 0.23
